Test system: Glycine max
experimental.protocol: Inhibition of soybean lipoxygenase at 100 uM after 15 mins
// reported inhibition for each item listed
I only need the number, in %, no unit after it.

The examples below pair each entry with its known result.
[[record]]
smiles_record = "CNC(=O)[C@H](Cc1ccccc1)NC(=O)c1nccc(O)c1O.Cl"
metric = "inhibition"
recorded_measurement = 71

[[record]]
smiles_record = "CNC(=O)CNC(=O)c1nccc(O)c1O.Cl"
metric = "inhibition"
recorded_measurement = 68


## Input Sample `CCc1c(O)c(=O)ccn1CC` — what was its inhibition?
## Output 87.4

## Input Look at this compound and give its reported inhibition. `CC(C)CNC(=O)CNC(=O)c1nccc(O)c1O.Cl`
## Output 70

## Input Value lookup for inhibition; key = `Cl.O=C(CNC(=O)c1nccc(O)c1O)NCc1ccccc1`
## Output 62

## Input Which inhibition value is on record for `CC(C)CNC(=O)[C@H](C)NC(=O)c1nccc(O)c1O.Cl` ?
## Output 71

## Input Using the record for `Cl.O=C(N[C@@H](Cc1ccccc1)C(=O)NCc1ccccc1)c1nccc(O)c1O` , report its inhibition.
## Output 60

---

Parameter pKa: see the listing below.
experimental.protocol: Association constant pKa of the compound
Type: physicochemical
Note: the reply should be a number with no unit written.

Example entries and their recorded answers appear below.
[[record]]
smiles_record = "CNC(=O)[C@H](Cc1ccccc1)NC(=O)c1nccc(O)c1O.Cl"
metric = "pKa"
recorded_measurement = 6.1

[[record]]
smiles_record = "CNC(=O)CNC(=O)c1nccc(O)c1O.Cl"
metric = "pKa"
recorded_measurement = 6.3

[[record]]
smiles_record = "CC(C)CNC(=O)[C@H](Cc1ccccc1)NC(=O)c1nccc(O)c1O.Cl"
metric = "pKa"
recorded_measurement = 6

[[record]]
smiles_record = "CC(C)CNC(=O)CNC(=O)c1nccc(O)c1O.Cl"
metric = "pKa"
recorded_measurement = 6.2

[[record]]
smiles_record = "Cl.O=C(N[C@@H](Cc1ccccc1)C(=O)NCc1ccccc1)c1nccc(O)c1O"
metric = "pKa"
recorded_measurement = 6

[[record]]
smiles_record = "C[C@H](NC(=O)c1nccc(O)c1O)C(=O)NCc1ccccc1.Cl"
metric = "pKa"
recorded_measurement = 6

[[record]]
smiles_record = "CC(C)CNC(=O)[C@H](C)NC(=O)c1nccc(O)c1O.Cl"
metric = "pKa"
recorded_measurement = 6

[[record]]
smiles_record = "CNC(=O)[C@H](C)NC(=O)c1nccc(O)c1O.Cl"
metric = "pKa"
recorded_measurement = 6


## Input Item under review: `Cl.O=C(CNC(=O)c1nccc(O)c1O)NCc1ccccc1` . Reported pKa?
## Output 6.2

---

target.or.system: Tyrosine 3-monooxygenase (Rattus norvegicus) (UniProt P04177)
Sequence (P04177 whole entry): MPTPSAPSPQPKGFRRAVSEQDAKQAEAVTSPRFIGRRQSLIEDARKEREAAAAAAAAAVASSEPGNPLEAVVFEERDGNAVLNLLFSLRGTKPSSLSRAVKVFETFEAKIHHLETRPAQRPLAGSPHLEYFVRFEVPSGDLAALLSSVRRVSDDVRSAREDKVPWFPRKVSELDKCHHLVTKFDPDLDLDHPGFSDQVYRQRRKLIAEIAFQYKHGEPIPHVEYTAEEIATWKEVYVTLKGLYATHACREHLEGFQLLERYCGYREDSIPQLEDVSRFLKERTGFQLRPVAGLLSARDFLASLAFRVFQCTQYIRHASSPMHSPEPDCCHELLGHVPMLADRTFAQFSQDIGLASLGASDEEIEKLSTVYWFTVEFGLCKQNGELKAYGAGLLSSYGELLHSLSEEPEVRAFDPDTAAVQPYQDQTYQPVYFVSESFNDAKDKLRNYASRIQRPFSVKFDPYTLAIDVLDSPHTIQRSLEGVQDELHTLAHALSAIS
experimental.protocol: Inhibition of tyrosine hydroxylase in rat striata at 10 uM after 20 mins
Activity calls are given as the source filed them. The rule behind the calls is not given here.
Can you answer with just one of these options? active, inactive

Examples with answers:
[[record]]
smiles_record = "CNC(=O)[C@H](C)NC(=O)c1nccc(O)c1O.Cl"
label_value = "inactive"

[[record]]
smiles_record = "CNC(=O)[C@H](Cc1ccccc1)NC(=O)c1nccc(O)c1O.Cl"
label_value = "active"

[[record]]
smiles_record = "C[C@H](NC(=O)c1nccc(O)c1O)C(=O)NCc1ccccc1.Cl"
label_value = "inactive"

[[record]]
smiles_record = "CC(C)CNC(=O)[C@H](Cc1ccccc1)NC(=O)c1nccc(O)c1O.Cl"
label_value = "active"


Turning now to a further record.
## Input Please let me know the test result on file for `Cl.O=C(N[C@@H](Cc1ccccc1)C(=O)NCc1ccccc1)c1nccc(O)c1O` .
## Output active

---

# inhibition per record follows
Tested on: Glycine max
experimental.protocol: Inhibition of soybean lipoxygenase at 10 uM after 15 mins
Only the number, expressed in %, is required.

Here are 3 molecules together with their reported answers.
[[record]]
smiles_record = "CC(C)CNC(=O)[C@H](Cc1ccccc1)NC(=O)c1nccc(O)c1O.Cl"
metric = "inhibition"
recorded_measurement = 46.5

[[record]]
smiles_record = "CCc1c(O)c(=O)ccn1CC"
metric = "inhibition"
recorded_measurement = 43

[[record]]
smiles_record = "CC(C)CNC(=O)[C@H](C)NC(=O)c1nccc(O)c1O.Cl"
metric = "inhibition"
recorded_measurement = 15.3


## Input Form: Entry = `CNC(=O)CNC(=O)c1nccc(O)c1O.Cl` | System = Glycine max | inhibition = ____
## Output 19.3

---

# reported logD; entries follow
experimental.protocol: Lipophilicity, log D of the compound at pH 7.4
Assay type: physicochemical
cond: buffer
Answer with a number only.

## Input Which measured logD value corresponds to `CC(C)CNC(=O)[C@H](C)NC(=O)c1nccc(O)c1O.Cl` ?
## Output -0.08

---

Tested on: Glycine max
experimental.protocol: Inhibition of soybean lipoxygenase at 100 uM after 15 mins
Parameter inhibition: see the listing below.
The figure you give is taken to be in %; do not add the unit.

[[record]]
smiles_record = "CC(C)CNC(=O)[C@H](Cc1ccccc1)NC(=O)c1nccc(O)c1O.Cl"
target_or_system = "Glycine max"
metric = "inhibition"
recorded_measurement = 81


## Input Find the recorded inhibition belonging to `C[C@H](NC(=O)c1nccc(O)c1O)C(=O)NCc1ccccc1.Cl` and report it.
## Output 54

## Input Give its inhibition value. Item: `Cc1c(O)c(=O)ccn1C`
## Output 58

## Input // lookup inhibition for `CNC(=O)[C@H](C)NC(=O)c1nccc(O)c1O.Cl`
## Output 61

---

Quick list: logD per entry.
experimental.protocol: Lipophilicity, log D of the compound at pH 7.4
Format: physicochemical
cond: buffer
Please state the value as a number alone, without comment.

Example cases with answers are listed next.
[[record]]
smiles_record = "Cl.O=C(N[C@@H](Cc1ccccc1)C(=O)NCc1ccccc1)c1nccc(O)c1O"
metric = "logD"
recorded_measurement = 0.9

[[record]]
smiles_record = "CC(C)CNC(=O)[C@H](Cc1ccccc1)NC(=O)c1nccc(O)c1O.Cl"
metric = "logD"
recorded_measurement = 0.39

[[record]]
smiles_record = "Cl.O=C(CNC(=O)c1nccc(O)c1O)NCc1ccccc1"
metric = "logD"
recorded_measurement = 0.01

[[record]]
smiles_record = "C[C@H](NC(=O)c1nccc(O)c1O)C(=O)NCc1ccccc1.Cl"
metric = "logD"
recorded_measurement = 0.03

[[record]]
smiles_record = "CNC(=O)CNC(=O)c1nccc(O)c1O.Cl"
metric = "logD"
recorded_measurement = -1.42


## Input # get_value(readout='logD', item= `CNC(=O)[C@H](Cc1ccccc1)NC(=O)c1nccc(O)c1O.Cl` )
## Output -0.11

## Input So what does the record say about logD for `CNC(=O)[C@H](C)NC(=O)c1nccc(O)c1O.Cl` ?
## Output -1.1

## Input Give its logD value. Item: `CC(C)CNC(=O)CNC(=O)c1nccc(O)c1O.Cl`
## Output -0.33
